Consider compounds characterized by their IC50 with CDK2 (Homo sapiens, UniProt P24941).
REPORTED_ENDPOINT: IC50 (µM)

>>> df
                                      smiles  unit_symbol  experimental_result
 0       Nc1nn(-c2ccccn2)c(N)c1N=Nc1ccccc1Cl           µM                 0.45
 1  Nc1nn(-c2ccccn2)c(N)c1N=Nc1ccc(S(=O)(=O)O)cc1           µM                 0.75
 2  Nc1nn(-c2ccccn2)c(N)c1N=Nc1cccc([N+](=O)[O-])c1           µM                  1.5
 3  Nc1nn(-c2ccccn2)c(N)c1N=Nc1ccc(C(=O)O)c(O)c1           µM                 0.56
 4     COc1ccc(N=Nc2c(N)nn(-c3ccccn3)c2N)cc1           µM                 0.85
 5  NC(N)=NS(=O)(=O)c1ccc(N=Nc2c(N)nn(-c3ccccn3)c2N)cc1           µM                 0.46
 6      Cc1cccc(N=Nc2c(N)nn(-c3ccccn3)c2N)c1           µM                 1.05
 7  Nc1nn(-c2ccccn2)c(N)c1N=Nc1ccc(N=Nc2ccccc2)cc1           µM                 0.77
 8          Nc1nn(-c2ccccn2)c(N)c1N=Nc1nccs1           µM                 1.24
 9  CC(=O)c1ccc(N=Nc2c(N)nn(-c3ccccn3)c2N)cc1           µM                  1.2
10  Nc1nn(-c2ccccn2)c(N)c1N=Nc1cc(Cl)c(Cl)cc1Cl           µM                 1.46
